SYSTEM_NAME: fMet-Leu-Phe receptor (Homo sapiens) (UniProt P21462)
TEST_DESCRIPTION: Inhibitory activity against Human formylpeptide receptor (FPR) of human leukemia HL-60 cells
Format: cell-based
RESULT_TYPE: log10 IC20 (log10 of the value in nM)

INSERT INTO assay_data (compound, result_type, obs_value) VALUES
  ('C/C=C/C[C@@H](C)[C@@H](O)[C@H]1C(=O)N[C@@H]([C@@H](C)O)C(=O)N(C)CC(=O)N(C)[C@H](CC(C)C)C(=O)N[C@@H](CC(C)C)C(=O)N(C)[C@H](CC(C)C)C(=O)N[C@@H](C)C(=O)N[C@H](C)C(=O)N(C)[C@@H](CC(C)C)C(=O)N[C@@H](CC(C)C)C(=O)N(C)[C@@H](C(C)C)C(=O)N1C', 'log10 IC20', 2.30),
  ('C/C=C/C[C@@H](C)[C@@H](O)[C@H]1C(=O)N[C@@H]([C@@H](C)O)C(=O)N(C)CC(=O)N(C)[C@H](CC(C)C)C(=O)N[C@H](C(C)C)C(=O)N(C)[C@H](CC(C)C)C(=O)N[C@@H](C)C(=O)N[C@H](C)C(=O)N(C)[C@@H](CC(C)C)C(=O)N[C@@H](CC(C)C)C(=O)N(C)[C@@H](C(C)C)C(=O)N1C', 'log10 IC20', 3.31),
  ('C/C=C/C[C@@H](C)[C@@H](O)[C@H]1C(=O)N[C@@H](CCC)C(=O)N(C)CC(=O)N(C)[C@H](CC(C)C)C(=O)N[C@H](C(C)C)C(=O)N[C@@H](CC(C)C)C(=O)N[C@@H](C)C(=O)N[C@H](C)C(=O)N(C)[C@@H](CC(C)C)C(=O)N(C)[C@@H](CC(C)C)C(=O)N(C)[C@@H](C(C)C)C(=O)N1C', 'log10 IC20', 3.91),
  ('CC/C=C/C[C@@H](C)[C@@H](O)[C@H]1C(=O)N[C@@H](CC)C(=O)N(C)CC(=O)N(C)[C@@H](CC(C)(C)O)C(=O)N[C@H](C(C)C)C(=O)N(C)[C@H](CC(C)C)C(=O)N[C@@H](C)C(=O)N[C@H](C)C(=O)N(C)[C@@H](CC(C)C)C(=O)N(C)[C@@H](CC(C)C)C(=O)N(C)[C@@H](C(C)C)C(=O)N1C', 'log10 IC20', 3.23),
  ('C/C=C/C[C@@H](C)[C@@H](O)C1NC(=O)[C@H](C(C)C)N(C)C(=O)[C@H](CC(C)C)N(C)C(=O)[C@H](CC(C)C)N(C)C(=O)[C@@H](C)NC(=O)[C@H](C)NC(=O)[C@@H](CC(C)C)N(C)C(=O)[C@@H](C(C)C)NC(=O)[C@@H](CC(C)C)N(C)C(=O)CN(C)C(=O)[C@H]([C@@H](C)O)NC1=O (some centres undefined)', 'log10 IC20', 3.18),
  ('C/C=C/C[C@@H](C)[C@@H](O)[C@H]1C(=O)N[C@@H]([C@@H](C)O)C(=O)N(C)CC(=O)N(C)[C@H](CC(C)C)C(=O)N[C@@H]([C@@H](C)CC)C(=O)N(C)[C@H](CC(C)C)C(=O)N[C@@H](C)C(=O)N[C@](O)(C(C)C)C(=O)N(C)[C@@H](CC(C)C)C(=O)N[C@@H](CC(C)C)C(=O)N(C)[C@@H](C(C)C)C(=O)N1C', 'log10 IC20', 2.46);

====

SYSTEM_NAME: fMet-Leu-Phe receptor (Homo sapiens, UniProt P21462)
Sequence (P21462 whole entry): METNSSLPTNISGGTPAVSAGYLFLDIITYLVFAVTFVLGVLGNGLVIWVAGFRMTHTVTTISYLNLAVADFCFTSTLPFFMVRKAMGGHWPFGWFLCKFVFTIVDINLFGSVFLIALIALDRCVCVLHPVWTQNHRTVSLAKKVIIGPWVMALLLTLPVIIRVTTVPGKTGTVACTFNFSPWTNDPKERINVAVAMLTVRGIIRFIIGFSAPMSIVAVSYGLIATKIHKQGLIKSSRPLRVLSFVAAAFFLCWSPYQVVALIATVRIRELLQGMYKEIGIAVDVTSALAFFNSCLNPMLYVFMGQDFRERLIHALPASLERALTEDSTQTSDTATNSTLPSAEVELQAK
TEST_DESCRIPTION: Inhibitory activity against human formylpeptide receptor (FPR) of human leukemia HL-60 cells
Assay type: cell-based
pIC50: −log10 of the molar value.
The following compounds are shown together with reported pIC50 values.
RESULT_TYPE: pIC50

INSERT INTO assay_data (smiles_text, relation_sign, obs_value) VALUES
  ('C/C=C/C[C@@H](C)[C@@H](O)[C@H]1C(=O)N[C@@H](CCC)C(=O)N(C)CC(=O)N(C)[C@@H](CC(C)C)C(=O)N[C@@H](CCC)C(=O)N(C)[C@@H](CC(C)C)C(=O)N[C@@H](C)C(=O)N[C@H](C)C(=O)N(C)[C@@H](CC(C)C)C(=O)N(C)[C@@H](CC(C)C)C(=O)N(C)[C@@H](C(C)C)C(=O)N1C', '=', 5.47),
  ('CC/C=C/C[C@@H](C)[C@@H](O)[C@H]1C(=O)N[C@@H](C(C)C)C(=O)N(C)CC(=O)N(C)[C@@H](CC(C)C)C(=O)N[C@@H](C(C)C)C(=O)N(C)[C@@H](CC(C)C)C(=O)N[C@@H](C)C(=O)N[C@H](C)C(=O)N(C)[C@@H](CC(C)C)C(=O)N(C)[C@@H](CC(C)C)C(=O)N(C)[C@@H](C(C)C)C(=O)N1C', '<', 5.00),
  ('C/C=C/C[C@@H](C)[C@@H](O)[C@H]1C(=O)N[C@@H]([C@@H](C)O)C(=O)N(C)CC(=O)N(C)[C@@H](CC(C)C)C(=O)N[C@@H](C(C)C)C(=O)N(C)[C@@H](CC(C)C)C(=O)N[C@@H](C)C(=O)N[C@H](C)C(=O)N(C)[C@@H](CC(C)C)C(=O)N[C@@H](CC(C)C)C(=O)N(C)[C@@H](C(C)C)C(=O)N1C', '<', 5.52),
  ('C/C=C/C[C@@H](C)[C@@H](O)[C@H]1C(=O)N[C@@H]([C@@H](C)O)C(=O)N(C)CC(=O)N[C@@H](CC(C)C)C(=O)N[C@@H](CC(C)C)C(=O)N(C)[C@@H](CC(C)C)C(=O)N[C@@H](C)C(=O)N[C@](O)(C(C)C)C(=O)N(C)[C@@H](CC(C)C)C(=O)N[C@@H](CC(C)C)C(=O)N(C)[C@@H](C(C)C)C(=O)N1C', '=', 6.25),
  ('C/C=C/C[C@@H](C)[C@@H](O)[C@H]1C(=O)N[C@@H](CC)C(=O)N(C)CC(=O)N(C)[C@@H](CC(C)C)C(=O)N[C@@H](C(C)C)C(=O)N(C)[C@@H](CC(C)C)C(=O)N[C@@H](C)C(=O)N[C@H](C)C(=O)N(C)[C@@H](CC(C)C)C(=O)N(C)[C@@H](CC(C)C)C(=O)N(C)[C@@H](C)C(=O)N1C', '=', 5.60),
  ('CCCCCC[C@H]1C(=O)N[C@@H](CC)C(=O)N(C)CC(=O)N(C)[C@@H](CC(C)C)C(=O)N[C@@H](C(C)C)C(=O)N(C)[C@@H](CC(C)C)C(=O)N[C@@H](C)C(=O)N[C@H](C)C(=O)N(C)[C@@H](CC(C)C)C(=O)N(C)[C@@H](CC(C)C)C(=O)N(C)[C@@H](C(C)C)C(=O)N1C', '<', 5.00),
  ('CCC[C@@H]1NC(=O)[C@H](CC(C)C)N(C)C(=O)[C@H](C(C)C)N(C)C(=O)[C@H](CC(C)C)N(C)C(=O)[C@H](CC(C)C)N(C)C(=O)[C@@H](C)NC(=O)[C@H](C)NC(=O)[C@H](CC(C)C)N(C)C(=O)[C@H](C(C)C)NC(=O)[C@H](CC(C)C)N(C)C(=O)CN(C)C1=O', '<', 5.00);

====

SYSTEM_NAME: fMet-Leu-Phe receptor (Homo sapiens) (UniProt P21462)
TEST_DESCRIPTION: Inhibitory activity against Human formylpeptide receptor (FPR) of human leukemia HL-60 cells
Type: cell-based
RESULT_TYPE: IC20 (µM)

INSERT INTO measurements (smiles_text, system_name, obs_value) VALUES
  ('C/C=C/C[C@@H](C)[C@@H](O)[C@H]1C(=O)N[C@@H]([C@@H](C)O)C(=O)N(C)CC(=O)N(C)[C@H](CC(C)C)C(=O)N[C@@H]([C@@H](C)CC)C(=O)N(C)[C@H](CC(C)C)C(=O)N[C@@H](C)C(=O)N[C@H](C)C(=O)N(C)[C@@H](CC(C)C)C(=O)N(C)[C@@H](CC(C)C)C(=O)N(C)[C@@H](C(C)C)C(=O)N1C', 'fMet-Leu-Phe receptor (Homo sapiens) (UniProt P21462)', 0.09),
  ('CCC[C@@H]1NC(=O)[C@H](CC(C)C)N(C)C(=O)[C@H](C(C)C)N(C)C(=O)[C@H](CC(C)C)N(C)C(=O)[C@H](CC(C)C)N(C)C(=O)[C@@H](C)NC(=O)[C@H](C)NC(=O)[C@@H](CC(C)C)N(C)C(=O)[C@H](C(C)C)NC(=O)[C@@H](CC(C)C)N(C)C(=O)CN(C)C1=O', 'fMet-Leu-Phe receptor (Homo sapiens) (UniProt P21462)', 7.6);

Source of measurements: ChEMBL document CHEMBL1135620
